I'd be grateful if you could share measured blocking ELISA signal normalized to isotype control (=1) for these entries.
Biological target: T1, Avi/His-HuIL18BPa (recombinant human IL-18BP isoform A with Avi and poly-His tags) (human, biotinylated with BirA on the Avi tag in some assays)
T1 construct: also called human IL-18BP-Avi-His
T1 chain: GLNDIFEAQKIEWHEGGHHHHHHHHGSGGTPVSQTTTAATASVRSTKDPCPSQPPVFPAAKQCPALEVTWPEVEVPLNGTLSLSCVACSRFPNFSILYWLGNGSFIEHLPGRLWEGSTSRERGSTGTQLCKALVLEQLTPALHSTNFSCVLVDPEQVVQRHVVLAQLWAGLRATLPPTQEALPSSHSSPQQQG
Test: blocking ELISA, competitor human IL-18

For the binder anti-IL18BP antibody BP-05 (antibody, human IgG1, V domains shown) VH: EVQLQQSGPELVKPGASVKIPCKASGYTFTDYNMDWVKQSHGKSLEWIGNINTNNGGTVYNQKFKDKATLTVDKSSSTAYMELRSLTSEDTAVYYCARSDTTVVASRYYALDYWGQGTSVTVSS VL: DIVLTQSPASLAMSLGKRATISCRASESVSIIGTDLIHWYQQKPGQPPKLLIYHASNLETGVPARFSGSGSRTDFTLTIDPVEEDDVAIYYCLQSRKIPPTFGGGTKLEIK , what blocking ELISA signal normalized to isotype control (=1) is on record? 0.191 ratio to isotype control

For the binder anti-IL18BP antibody BP-07 (antibody, human IgG1, V domains shown) VH: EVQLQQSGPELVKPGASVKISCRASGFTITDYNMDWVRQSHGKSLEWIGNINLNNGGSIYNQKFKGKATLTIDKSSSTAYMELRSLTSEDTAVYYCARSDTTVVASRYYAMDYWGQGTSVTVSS VL: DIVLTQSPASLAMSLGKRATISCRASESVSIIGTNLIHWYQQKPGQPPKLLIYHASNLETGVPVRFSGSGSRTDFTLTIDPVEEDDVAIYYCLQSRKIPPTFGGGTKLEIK , what blocking ELISA signal normalized to isotype control (=1) is on record? 0.147 ratio to isotype control

For the binder anti-IL18BP antibody BP-14 (antibody, human IgG1, V domains shown) VH: QVQLVQSGAEVKKPGASVKVSCKASGYTFTGYYMHWVRQAPGQGLEWMGIINPRGGSTSHAQKFQGRVTMTRDTSTSTVYMELSSLRSEDTAVYYCARGLELHWFDPWGQGTLVTVSS VL: DIQMTQSPSSLSASVGDRVTITCRASQNIRSWLAWYQQKPGKAPKLLIYAASSLQSGVPSRFSGSGSGTDFTLTISSLQPEDFATYYCQQANSFPYTFGQGTKLEIK , what blocking ELISA signal normalized to isotype control (=1) is on record? 0.069 ratio to isotype control
